B1: CDS2 (parent)
chain: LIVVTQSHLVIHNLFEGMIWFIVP

- Variants of: B1
- Procedure Summary: protein stability index of a GFP-peptide fusion (GPS, HEK-293T) (PSI 1-6); higher = more stable;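 further: lentivirally expressed fusions sorted by FACS into six bins by GFP to DsRed ratio, PSI derived from sequencing read proportions per bin multiplied by bin number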
- Condition Parameters: c terminus: a fixed tail appended
Parameter: protein stability index

- Sequence Record: "LIVDTQSHLVIHNLFEGMIWFIVP"
  Parameter: "protein stability index"
  Assay Result: 3.18
- Sequence Record: "LIVVTQSHLVIHNLQEGMIWFIVP"
  Parameter: "protein stability index"
  Assay Result: 2.25
- Sequence Record: "LIVVTQSHLVIHNLFEGMIWGIVP"
  Parameter: "protein stability index"
  Assay Result: 2.49
- Sequence Record: "LIVVTQSHLVIHNLFEGMSWFIVP"
  Parameter: "protein stability index"
  Assay Result: 2.75
- Sequence Record: "LIVVTQSHLVIHNGFEGMIWFIVP"
  Parameter: "protein stability index"
  Assay Result: 3.6
- Sequence Record: "LIVVTQSHLVIHNLFEGMICFIVP"
  Parameter: "protein stability index"
  Assay Result: 3.16
- Sequence Record: "LIVVTQSHLVIHNLFEHMIWFIVP"
  Parameter: "protein stability index"
  Assay Result: 2.8
- Sequence Record: "LIVKTQSHLVIHNLFEGMIWFIVP"
  Parameter: "protein stability index"
  Assay Result: 4.3
- Sequence Record: "LIVVTQSHLVIHNLFIGMIWFIVP"
  Parameter: "protein stability index"
  Assay Result: 3.46
- Sequence Record: "LIVVTQSHLVIHNLFEGMMWFIVP"
  Parameter: "protein stability index"
  Assay Result: 2.95
- Sequence Record: "LIVVTQSHLMIHNLFEGMIWFIVP"
  Parameter: "protein stability index"
  Assay Result: 2.77
- Sequence Record: "LIVVTQSHLVIHNLFEGMIWFIVC"
  Parameter: "protein stability index"
  Assay Result: 3.63
- Sequence Record: "LIVVTQPHLVIHNLFEGMIWFIVP"
  Parameter: "protein stability index"
  Assay Result: 4.35
- Sequence Record: "LIVVTQSHLVIHNLFEGMKWFIVP"
  Parameter: "protein stability index"
  Assay Result: 2.41
- Sequence Record: "LIVVTQSHLVIHPLFEGMIWFIVP"
  Parameter: "protein stability index"
  Assay Result: 3.48
- Sequence Record: "LIVVTQSHLVIHNLFEGDIWFIVP"
  Parameter: "protein stability index"
  Assay Result: 3.2
- Sequence Record: "LIVVTQSHLVIHILFEGMIWFIVP"
  Parameter: "protein stability index"
  Assay Result: 4.67
- Sequence Record: "LIVVTQSHLVIHNLFEGMIWFIVW"
  Parameter: "protein stability index"
  Assay Result: 3.81
- Sequence Record: "LIVVTQSMLVIHNLFEGMIWFIVP"
  Parameter: "protein stability index"
  Assay Result: 2.48
- Sequence Record: "LIVVTQSHLVIHNLFLGMIWFIVP"
  Parameter: "protein stability index"
  Assay Result: 4.5
- Sequence Record: "LSVVTQSHLVIHNLFEGMIWFIVP"
  Parameter: "protein stability index"
  Assay Result: 2.69
- Sequence Record: "LIVVTQSHLVIHNLFEGVIWFIVP"
  Parameter: "protein stability index"
  Assay Result: 4.17
